# system_under_test: delF508-CFTR (Homo sapiens, UniProt P13569, DEL508-508)
# Construct: functional activity of the CFTR channel (Chloride ion transport) in patient derived primary human bronchial epithelial cells; host or cells: patient-derived primary human bronchial epithelial cells (delF508-CFTR)
# Sequence (P13569 with tags, fused parts or gaps DEL508-508): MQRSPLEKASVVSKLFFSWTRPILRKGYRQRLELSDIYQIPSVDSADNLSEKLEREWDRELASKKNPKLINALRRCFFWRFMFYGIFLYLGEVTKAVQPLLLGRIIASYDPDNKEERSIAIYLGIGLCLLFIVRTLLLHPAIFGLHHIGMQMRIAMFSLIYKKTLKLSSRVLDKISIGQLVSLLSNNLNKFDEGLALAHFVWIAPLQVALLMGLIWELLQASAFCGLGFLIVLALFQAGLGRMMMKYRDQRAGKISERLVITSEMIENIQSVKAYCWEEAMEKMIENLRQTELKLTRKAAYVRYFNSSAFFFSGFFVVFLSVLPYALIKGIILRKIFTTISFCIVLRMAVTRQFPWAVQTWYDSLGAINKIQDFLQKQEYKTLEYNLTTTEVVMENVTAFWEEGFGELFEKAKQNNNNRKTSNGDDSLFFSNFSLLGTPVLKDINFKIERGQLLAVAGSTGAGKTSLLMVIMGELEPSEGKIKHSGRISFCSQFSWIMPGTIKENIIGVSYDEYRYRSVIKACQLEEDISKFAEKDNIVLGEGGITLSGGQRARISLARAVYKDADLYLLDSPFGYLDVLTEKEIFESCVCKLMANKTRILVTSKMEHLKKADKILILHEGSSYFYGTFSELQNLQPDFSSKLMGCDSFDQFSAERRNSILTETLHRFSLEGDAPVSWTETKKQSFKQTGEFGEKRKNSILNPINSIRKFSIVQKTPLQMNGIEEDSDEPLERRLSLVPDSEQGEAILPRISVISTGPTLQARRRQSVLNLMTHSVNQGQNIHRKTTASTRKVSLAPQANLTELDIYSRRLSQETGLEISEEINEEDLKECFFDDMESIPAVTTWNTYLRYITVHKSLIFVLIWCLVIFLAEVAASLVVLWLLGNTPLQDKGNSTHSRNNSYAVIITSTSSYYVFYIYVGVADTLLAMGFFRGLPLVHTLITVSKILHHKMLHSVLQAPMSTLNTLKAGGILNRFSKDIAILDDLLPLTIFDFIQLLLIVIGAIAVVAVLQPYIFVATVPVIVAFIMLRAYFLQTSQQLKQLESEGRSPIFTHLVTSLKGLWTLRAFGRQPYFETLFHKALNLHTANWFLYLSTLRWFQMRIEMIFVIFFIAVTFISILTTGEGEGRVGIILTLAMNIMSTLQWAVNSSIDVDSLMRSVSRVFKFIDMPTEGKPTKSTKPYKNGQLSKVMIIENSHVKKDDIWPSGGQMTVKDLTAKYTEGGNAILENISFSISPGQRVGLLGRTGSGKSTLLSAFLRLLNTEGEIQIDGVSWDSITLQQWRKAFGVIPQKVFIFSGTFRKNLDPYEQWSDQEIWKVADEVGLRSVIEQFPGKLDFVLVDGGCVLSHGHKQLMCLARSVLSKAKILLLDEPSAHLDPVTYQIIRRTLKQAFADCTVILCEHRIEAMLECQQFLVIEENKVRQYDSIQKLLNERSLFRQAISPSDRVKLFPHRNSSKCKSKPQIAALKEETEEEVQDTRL
# test_summary: Measurement of delF508-CFTR functional activity in primary human bronchial epithelial cells (HBECs) using Multi-Transepithelial Clamp Circuit (MTECC-24) assay
# Assay type: cell-based
# condition_label: primary CF HBECs; test compound added 24h before assay plus potentiator; relative to reference combination (2 μM corrector + 0.5 μM potentiator)
Where a name gives a salt, the structure may show the parent alone.
result_type: MTECC24 CFHBEC- Amax % (%)

1. Cc1ccc(F)cc1-c1nc(NS(=O)(=O)c2cccc(N3CC(O)C3)n2)ccc1Cl = 84.0

P. C[C@]1(C(=O)O)CCCN(c2cccc(S(=O)(=O)Nc3ccc(C(F)(F)F)c(-c4ccccc4C4CCC4)n3)n2)C1
Q. Cc1ccccc1-c1nc(NS(=O)(=O)c2cccc(N3CCC(N)CC3)n2)ccc1C(F)(F)F [Example 108, Hydrochloride]
Lookup: Between P and Q , which one shows the smaller MTECC24 CFHBEC- Amax % number? Output the label that corresponds to your choice.
Found: Q

A. Nc1cccc(S(=O)(=O)Nc2ccc(C(F)(F)F)c(-c3ccc(F)cc3Cl)n2)n1
B. Cc1ccc(F)cc1-c1nc(NS(=O)(=O)c2cccc(N[C@@H]3[C@H](CO)[C@H]4CC[C@@H]3O4)n2)ccc1Cl
Lookup: Select one: A or B . Criterion: greater recorded MTECC24 CFHBEC- Amax %. Output the label that corresponds to your choice.
Found: A
(A: 88.8%, B: 61.9%)

a. Cc1c(C#N)cccc1-c1nc(NS(=O)(=O)c2cccc(N)n2)ccc1Cl
b. Cc1ccccc1-c1nc(NS(=O)(=O)c2cccc(N3CC4(C3)OCCC4N)n2)ccc1C(F)(F)F (centres unmarked)
Lookup: Between a and b , which one shows the smaller MTECC24 CFHBEC- Amax % number? Output the label that corresponds to your choice.
Found: a
(a: 45.8%, b: 65.5%)
